The reported numbers originate from PubChem BioAssay.

Parameter: inhibition. Scope: all listed entries.
- test.method.notes: growth suppression of yeast trafficking mutant, preliminary HTS, modulators of trafficking downstream of Golgi apparatus project, 1536-format plate, OD 615 nm (AID 637)
- experimental.context: yeast transport mutant growth, absorbance 615 nm, 18 h; stronger effect = higher value
The reply should contain only the number, in %.

Record excerpt, results attached:
Input line: Input CCOC(=O)C1CCN(c2c(NC3CCCc4ccccc43)c(=O)c2=O)CC1 (configuration not stated) , output reported inhibition.
Output line: 0.67

Input line: Input Cc1ccc(C(C)C)c(OCCCN2CC(C)OC(C)C2)c1 (configuration not stated) , output reported inhibition.
Output line: 27.7

Input line: Input COc1ccc(NC(=O)C2Cc3ccccc3C(=O)O2)cc1 (configuration not stated) , output reported inhibition.
Output line: -1.67

Input line: Input `CCOc1ccc2[nH]c(C)cc(=O)c2c1` , output reported inhibition.
Output line: -9.02

Input line: Input `CCOc1ccccc1N1Cc2cc(C)c(C)cc2C1` , output reported inhibition.
Output line: -0.83

Input line: Input `c1ccc(-c2nnc(CSc3nncs3)o2)cc1` , output reported inhibition.
Output line: -4.67

Input line: Input `Cc1c(C)n(C)c2ccc(C(=O)NCc3cccs3)cc12` , output reported inhibition.
Output line: -4.59

Input line: Input `COc1ccc(OC)c(NC(=O)c2cn(C)c(=O)c3cc(OC)c(OC)cc23)c1` , output reported inhibition.
Output line: 28.7

Input line: Input O=C(O)c1ccccc1S(=O)(=O)NCC(O)COc1ccc(Br)cc1 (configuration not stated) , output reported inhibition.
Output line: -1.17

Input line: Input `COC(=O)CSc1nc2nc(C)cc(C)n2n1` , output reported inhibition.
Output line: 3.17

Further cases:
Input line: Input COCCOC(=O)C1=C(C)N=c2s/c(=C\c3cccs3)c(=O)n2C1c1cccs1 (configuration not stated) , output reported inhibition.
Output line: -8.17

Input line: Input `CN(C)c1ccc(NC(=O)Cn2cc3c(n2)CCCC3)cc1` , output reported inhibition.
Output line: -5

----------
- test.method.notes: RAM signaling pathway blockade in yeast – S. cerevisiae, Pdr1DBD-CYC8 efflux-inhibited sensitized strain, primary screen (AID 1298);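 further: 0% = DMSO untreated cells without growth and 100% = 10 µM 1-NA-PP1 full growth; higher means more yeast growth rescued from 5-FOA killing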
- experimental.context: S. cerevisiae cbk1-as DSE1-URA3 strain, 5-FOA growth OD615, 2 d; at 50 µM; stronger effect = higher value
measured.attribute: RAM network inhibition (%)
The reply should contain only the number, in %.

Input line: Input CCOC(=O)C1C(=O)N(C(=O)c2cncc(Br)c2)CC1c1ccccc1 (stereo not given) , output reported RAM network inhibition.
Output line: 9.56

Input line: Input CC(=O)N1CCN(CCN=CC2=C(O)CC(c3cccs3)CC2=O)CC1 (stereo not given) , output reported RAM network inhibition.
Output line: -0.41

Input line: Input COC(=O)C1(C)Nc2ccccc2C(=O)N1c1ccccc1C (stereo not given) , output reported RAM network inhibition.
Output line: 5.2

Further cases:
Input line: Input `O=C(c1ccc2nc(N3CCCCC3)sc2c1)N1CCN(c2ccccn2)CC1` , output reported RAM network inhibition.
Output line: -1.58

Input line: Input `CCOC(=O)N1CCN(C(=O)CSc2nnc(Cn3c(=O)sc4ccccc43)n2C)CC1` , output reported RAM network inhibition.
Output line: 1.9

----------
- test.method.notes: S. cerevisiae growth inhibition in permissive medium (OD615), pilot counter-assay for S. cerevisiae lifespan shortening project, permissive growth control (AID 705)
- experimental.context: OD615, 24 h, at 10 µM, stronger effect = higher value
measured.attribute: growth inhibition (%)
The reply should contain only the number, in %.

Record excerpt, results attached:
Input line: Input `O=C(NC1(C(=O)NC2CCCCC2)CCCCC1)c1ccc2c(c1)OCO2` , output reported growth inhibition.
Output line: -0.75

Input line: Input `COc1ccc(NC(=O)CSc2nnc(-c3ccccc3)n2N)cc1` , output reported growth inhibition.
Output line: 0.265

Input line: Input `Cc1cccc(NC(=O)c2ccccc2O)c1C` , output reported growth inhibition.
Output line: 2.66

Input line: Input `CCOC(=O)N1CCN(C(=O)c2ccc(CS(=O)(=O)c3c(Cl)cccc3Cl)o2)CC1` , output reported growth inhibition.
Output line: -9.35

Further cases:
Input line: Input `O=c1c(-c2ccccc2)coc2c(CN3CCOCC3)c(O)ccc12` , output reported growth inhibition.
Output line: -9.23

Input line: Input `Cc1ccc(C)n1-c1ccc(N2CCOCC2)cc1` , output reported growth inhibition.
Output line: -10.4

Input line: Input CCCn1c(C(C)NC(C)=O)nc2ccccc21 (centres undefined) , output reported growth inhibition.
Output line: -10.3

Input line: Input `CCN1CCN(C(=O)Cn2ncc3ccsc3c2=O)CC1` , output reported growth inhibition.
Output line: -0.535

Input line: Input Cn1c(=O)oc2cc(S(=O)(=O)N3CCCC(C(=O)NCc4cccs4)C3)ccc21 (centres undefined) , output reported growth inhibition.
Output line: 2.14
